Target: PI3 Kinase (p120γ) (h) (Homo sapiens)
Construct: endogenous in cells
Sequence (P48736 whole entry): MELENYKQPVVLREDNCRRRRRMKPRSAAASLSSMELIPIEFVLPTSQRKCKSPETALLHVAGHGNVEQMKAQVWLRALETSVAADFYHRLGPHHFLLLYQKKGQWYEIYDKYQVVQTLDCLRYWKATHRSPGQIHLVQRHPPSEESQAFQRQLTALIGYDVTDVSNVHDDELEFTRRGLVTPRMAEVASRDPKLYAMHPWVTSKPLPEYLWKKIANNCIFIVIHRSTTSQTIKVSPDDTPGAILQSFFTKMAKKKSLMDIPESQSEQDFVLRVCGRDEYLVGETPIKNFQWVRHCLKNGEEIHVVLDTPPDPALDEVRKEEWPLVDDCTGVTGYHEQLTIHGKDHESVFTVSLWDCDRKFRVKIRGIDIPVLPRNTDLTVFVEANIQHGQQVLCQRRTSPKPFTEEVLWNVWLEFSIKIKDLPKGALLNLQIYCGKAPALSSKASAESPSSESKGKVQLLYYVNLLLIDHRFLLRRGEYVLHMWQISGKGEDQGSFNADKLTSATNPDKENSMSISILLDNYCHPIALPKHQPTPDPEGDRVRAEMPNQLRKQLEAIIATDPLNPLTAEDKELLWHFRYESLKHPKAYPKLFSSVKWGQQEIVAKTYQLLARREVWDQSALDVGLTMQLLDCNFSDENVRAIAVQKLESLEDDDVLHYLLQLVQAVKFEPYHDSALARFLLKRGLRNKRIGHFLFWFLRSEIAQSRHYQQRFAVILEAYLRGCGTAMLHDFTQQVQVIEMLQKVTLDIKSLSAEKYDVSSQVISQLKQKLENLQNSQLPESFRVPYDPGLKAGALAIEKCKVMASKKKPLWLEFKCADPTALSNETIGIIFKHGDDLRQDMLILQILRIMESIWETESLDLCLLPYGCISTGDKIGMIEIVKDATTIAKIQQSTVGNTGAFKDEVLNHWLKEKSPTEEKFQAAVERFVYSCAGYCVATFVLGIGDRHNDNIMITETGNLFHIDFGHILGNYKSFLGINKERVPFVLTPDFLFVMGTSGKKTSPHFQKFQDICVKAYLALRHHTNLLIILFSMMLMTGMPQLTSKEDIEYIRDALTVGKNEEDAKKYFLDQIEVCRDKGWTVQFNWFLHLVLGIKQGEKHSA
Assay: Inhibition of phosphatidylinositol 3-kinase gamma (PI3K γ), pAkt Western blotting in C5a-stimulated RAW264.7 macrophages
Conditions: ATP=10 uM, sample concentration=100 nM
pIC50: −log10 of the molar value.
Property Label: pIC50

C[C@H](Nc1ncnc2c1C(=O)CCN2)c1c(Cl)c2cccc(Cl)c2c(=O)n1-c1ccccc1 | 6.30 to 8.00
C[C@H](Nc1ncnc2[nH]ccc(=O)c12)c1c(F)c2cccc(Cl)c2c(=O)n1-c1ccccc1 | 6.30 to 8.00
C[C@H](Nc1nc(N)nc2[nH]ccc(=O)c12)c1nc2ccc(F)cc2cc1-c1ccccn1 | > 8.00
C[C@H](Nc1ncnc2[nH]ccc(=O)c12)c1nc2ccc(F)cc2c(=O)n1-c1cccnc1 | < 6.30
O=c1cc[nH]c2ncnc(N3CCC[C@H]3c3cc4cccc(Cl)c4c(=O)n3-c3ccccc3)c12 | 6.30 to 8.00

Can you give me pIC50 for all of these, one by one?
1. Cc1cccc(-n2c([C@H](C)Nc3ncnc4c3C(=O)N(C)CN4)nc3cccc(Cl)c3c2=O)c1
2. C[C@H](Nc1ncnc2[nH]ccc(=O)c12)c1nc2cccc(Cl)c2c(=O)n1-c1cccnc1
3. CC[C@H](Nc1nc(N)nc2[nH]cnc(=O)c12)c1nc2cccc(F)c2c(=O)n1-c1ccccc1

1: 6.30 to 8.00; 2: 6.30 to 8.00; 3: 6.30 to 8.00

Can you give me pIC50 for all of these, one by one?
1. C[C@H](Nc1ncnc2c1C(=O)N(C)CN2)c1nc2cccc(Cl)c2c(=O)n1-c1ccccc1
2. CC(Nc1ncnc2c1C(=O)N(C)CN2)c1cc2ccccc2nc1-c1ccccc1 (stereo not shown)
3. C[C@H](Nc1ncnc2c1C(=O)N(C)CN2)c1c(Cl)c2cccc(Cl)c2c(=O)n1-c1ccccc1
4. O=c1nc[nH]c2ncnc(N3CCC[C@H]3c3cc4cccc(Cl)c4c(=O)n3-c3cccnc3)c12
5. C[C@H](Nc1nc(N)nc2[nH]cnc(=O)c12)c1nc2cccc(Cl)c2c(=O)n1-c1cccnc1
6. Nc1nc(N2CCC[C@H]2c2nc3cccc(Cl)c3c(=O)n2-c2cccnc2)c2c(=O)nc[nH]c2n1
7. C[C@H](Nc1ncnc2[nH]cnc(=O)c12)c1nc2cccc(Cl)c2c(=O)n1-c1ccccc1
8. Cc1cccc(-n2c([C@@H]3CCCN3c3ncnc4c3C(=O)N(C)CN4)nc3cccc(Cl)c3c2=O)c1

1. 6.30 to 8.00
2. 6.30 to 8.00
3. 6.30 to 8.00
4. < 6.30
5. 6.30 to 8.00
6. < 6.30
7. < 6.30
8. 6.30 to 8.00

====

Target: PI3 Kinase (p110α/p85α) (h) (Homo sapiens)
Construct: endogenous in cells
Sequence (P42336 whole entry): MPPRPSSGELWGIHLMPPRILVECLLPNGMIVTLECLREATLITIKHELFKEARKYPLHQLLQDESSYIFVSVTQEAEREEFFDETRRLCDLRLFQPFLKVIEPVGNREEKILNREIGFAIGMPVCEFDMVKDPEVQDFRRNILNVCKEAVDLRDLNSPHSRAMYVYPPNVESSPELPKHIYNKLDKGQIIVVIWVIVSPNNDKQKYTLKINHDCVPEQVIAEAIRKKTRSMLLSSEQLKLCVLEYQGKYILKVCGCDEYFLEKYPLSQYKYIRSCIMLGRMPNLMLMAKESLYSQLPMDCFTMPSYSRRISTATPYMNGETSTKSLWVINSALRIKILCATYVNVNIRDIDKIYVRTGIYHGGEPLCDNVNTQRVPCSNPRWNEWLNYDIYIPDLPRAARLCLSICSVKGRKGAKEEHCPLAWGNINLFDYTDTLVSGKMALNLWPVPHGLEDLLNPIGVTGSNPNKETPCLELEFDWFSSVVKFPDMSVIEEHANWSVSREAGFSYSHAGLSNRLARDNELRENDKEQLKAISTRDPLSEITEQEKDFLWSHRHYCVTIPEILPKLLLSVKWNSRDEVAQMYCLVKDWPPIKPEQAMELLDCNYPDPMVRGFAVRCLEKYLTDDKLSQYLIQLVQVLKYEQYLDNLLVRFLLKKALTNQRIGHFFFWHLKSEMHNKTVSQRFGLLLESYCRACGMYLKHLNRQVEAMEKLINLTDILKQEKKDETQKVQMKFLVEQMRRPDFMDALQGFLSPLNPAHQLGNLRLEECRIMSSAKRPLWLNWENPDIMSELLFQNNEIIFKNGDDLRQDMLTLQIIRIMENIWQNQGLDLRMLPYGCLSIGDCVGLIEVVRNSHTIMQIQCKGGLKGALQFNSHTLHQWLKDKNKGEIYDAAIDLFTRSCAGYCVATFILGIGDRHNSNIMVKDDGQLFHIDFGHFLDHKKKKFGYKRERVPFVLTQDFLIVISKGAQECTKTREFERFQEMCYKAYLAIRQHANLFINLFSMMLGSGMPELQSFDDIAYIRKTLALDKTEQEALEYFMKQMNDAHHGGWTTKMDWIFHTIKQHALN
Sequence (P27986 2-724 partner limits assumed): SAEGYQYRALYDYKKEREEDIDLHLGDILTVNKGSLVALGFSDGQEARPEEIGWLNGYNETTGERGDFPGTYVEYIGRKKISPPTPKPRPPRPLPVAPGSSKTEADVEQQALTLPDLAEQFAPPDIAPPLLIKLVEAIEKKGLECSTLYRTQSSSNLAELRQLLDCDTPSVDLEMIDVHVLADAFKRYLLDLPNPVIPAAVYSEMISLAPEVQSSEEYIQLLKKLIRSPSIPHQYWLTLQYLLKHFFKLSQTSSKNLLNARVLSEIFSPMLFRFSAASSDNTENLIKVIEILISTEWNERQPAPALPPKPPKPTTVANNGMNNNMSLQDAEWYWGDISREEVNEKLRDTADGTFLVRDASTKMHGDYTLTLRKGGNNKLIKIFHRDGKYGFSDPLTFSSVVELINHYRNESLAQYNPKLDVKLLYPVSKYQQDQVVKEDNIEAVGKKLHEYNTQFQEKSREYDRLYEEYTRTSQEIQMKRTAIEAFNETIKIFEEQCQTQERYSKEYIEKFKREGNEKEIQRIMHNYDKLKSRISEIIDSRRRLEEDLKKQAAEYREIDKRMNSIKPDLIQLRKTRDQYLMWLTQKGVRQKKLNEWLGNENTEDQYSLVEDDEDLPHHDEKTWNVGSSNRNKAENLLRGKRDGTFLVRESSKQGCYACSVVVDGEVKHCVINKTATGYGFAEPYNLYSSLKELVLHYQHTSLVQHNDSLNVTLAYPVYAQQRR
Experiment: Inhibition of phosphatidylinositol 3-kinase alpha (PI3K α), pAkt Western blotting in EGF-stimulated MDA-MB-453 cells
Details: ATP=10 uM, sample concentration=100 nM
pIC50: −log10 of the molar value.
Property Label: pIC50

Study these solved cases before continuing.
C[C@H](Nc1ncnc2[nH]cc(Cl)c(=O)c12)c1cc2cccc(Cl)c2c(=O)n1-c1ccccc1 [Example 23] | < 6.30
Cc1c[nH]c2nc(N)nc(N[C@@H](C)c3cc4cccc(Cl)c4c(=O)n3-c3ccccc3)c2c1=O [Example 18] | 6.30 to 8.00
C[C@H](Nc1ncnc2c1C(=O)N(C)CN2)c1cc2cccc(Cl)c2c(=O)n1-c1ccccc1 [Example 38] | 6.30 to 8.00
Cc1c[nH]c2ncnc(N[C@@H](C)c3cc4cccc(Cl)c4c(=O)n3-c3ccccc3)c2c1=O [Example 17] | < 6.30
C[C@H](Nc1ncnc2[nH]ccc(=O)c12)c1nc2ccc(F)cc2c(=O)n1-c1cccc(F)c1 [Example 30] | < 6.30
C[C@H](Nc1ncnc2[nH]ccc(=O)c12)c1c(F)c2cccc(Cl)c2c(=O)n1-c1ccccc1 [Example 11] | < 6.30

// next item, pIC50 requested
Under PI3 Kinase (p110α/p85α) (h) (Homo sapiens): pIC50 value of C[C@H](Nc1nc(N)nc2[nH]ccc(=O)c12)c1cc2cccc(Cl)c2c(=O)n1-c1ccccc1 [Example 15] ? 6.30 to 8.00
